The measurements presented in this section are drawn from patent US10538583.

# assay target: human ApoC3 (human)
# Sequence (chain, as listed by the source): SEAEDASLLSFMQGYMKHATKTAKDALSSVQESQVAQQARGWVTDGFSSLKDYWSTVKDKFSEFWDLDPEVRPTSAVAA
# measurement notes: SPR pH 5.5
Response field label: string, one of Y (Kd strictly below 1 nM) or N.

A record lists 5E5VH12_VL8 IgG1 (antibody, V domains shown) VH: QLQLVESGGGLVQPGGSLRLSCAASGFTFGTYSMRWVRQVPRKALEWVSSISTDGGGTAYRDSVKGRFTISRDNAKNTLYLQMNNLKPEDTAIYYCVIHGYSDWGQGTQVTVSS VL: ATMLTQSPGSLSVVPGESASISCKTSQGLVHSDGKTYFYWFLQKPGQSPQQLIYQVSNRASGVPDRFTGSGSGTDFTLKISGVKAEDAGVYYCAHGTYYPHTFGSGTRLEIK . Is its Kd below 1 nM? N

Kd strictly < 1 nM for this binder? 5E5VH5_VLWT IgG1 (antibody, V domains shown) VH: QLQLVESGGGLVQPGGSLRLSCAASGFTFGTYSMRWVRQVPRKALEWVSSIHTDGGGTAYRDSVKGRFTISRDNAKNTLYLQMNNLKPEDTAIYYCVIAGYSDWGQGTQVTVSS VL: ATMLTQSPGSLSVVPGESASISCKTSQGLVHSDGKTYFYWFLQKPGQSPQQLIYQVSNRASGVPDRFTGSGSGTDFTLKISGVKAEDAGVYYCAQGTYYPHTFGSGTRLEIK N

Input 5E5WT (5E5) IgG1 (antibody, V domains shown) VH: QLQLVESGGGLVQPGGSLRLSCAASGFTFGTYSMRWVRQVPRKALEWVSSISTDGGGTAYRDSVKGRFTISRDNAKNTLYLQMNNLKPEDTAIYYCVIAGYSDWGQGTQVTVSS VL: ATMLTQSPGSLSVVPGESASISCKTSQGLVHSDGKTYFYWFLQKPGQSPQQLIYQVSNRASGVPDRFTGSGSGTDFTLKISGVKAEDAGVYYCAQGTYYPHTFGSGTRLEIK ; condition: Kd strictly below 1 nM. Does it hold? Y

Kd under 1 nM? Item: 5E5VH5_VL8 IgG1 (antibody, V domains shown) VH: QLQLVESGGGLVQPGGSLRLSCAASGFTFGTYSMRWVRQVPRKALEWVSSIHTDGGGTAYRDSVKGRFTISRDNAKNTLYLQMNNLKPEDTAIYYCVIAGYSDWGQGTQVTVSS VL: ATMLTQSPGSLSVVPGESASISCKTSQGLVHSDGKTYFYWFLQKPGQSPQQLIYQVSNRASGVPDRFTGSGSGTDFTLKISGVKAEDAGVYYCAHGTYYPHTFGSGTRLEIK N

Identify whether the binder 5E5VH5VH12_VLWT IgG1 (antibody, V domains shown) VH: QLQLVESGGGLVQPGGSLRLSCAASGFTFGTYSMRWVRQVPRKALEWVSSIHTDGGGTAYRDSVKGRFTISRDNAKNTLYLQMNNLKPEDTAIYYCVIHGYSDWGQGTQVTVSS VL: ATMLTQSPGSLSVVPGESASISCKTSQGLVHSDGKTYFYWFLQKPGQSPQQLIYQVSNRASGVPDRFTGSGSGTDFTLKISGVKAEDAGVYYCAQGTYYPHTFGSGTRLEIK records Kd below 1 nM. N

---
Is it true that Kd reported for 5E5VHWT_VL8 IgG1 (antibody, V domains shown) VH: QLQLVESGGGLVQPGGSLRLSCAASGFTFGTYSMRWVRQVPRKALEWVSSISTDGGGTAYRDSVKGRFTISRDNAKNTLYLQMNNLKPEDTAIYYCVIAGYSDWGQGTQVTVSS VL: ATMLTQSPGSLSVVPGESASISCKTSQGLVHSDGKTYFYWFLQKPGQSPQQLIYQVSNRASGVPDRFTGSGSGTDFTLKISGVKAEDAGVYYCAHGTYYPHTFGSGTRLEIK is less than 1 nM? Y
